- Assay text: chemical genetic growth profiling, strain panel (AID 1159580);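 note: tested at 20 µM; growth read once vehicle control cultures reached saturation at 30 °C; 1 = growth at the plate median or of vehicle wells; lower values mean less growth of the strain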
- Experimental setup: S. cerevisiae deletion strains, growth OD, locus YGR135W, strain pre9, stronger effect = lower value
Hit rate of the full screen: of about 5,500 compounds, about 2,000 (36%) were called active. Inconclusive results (about 18%) are left out. This is one part of the list.

{"Compound": "NC(=O)NCC(N)C(=O)O (stereo unspecified)", "normalized growth": 0.995}
{"Compound": "CC(=O)Oc1ccc2c(c1OC(C)=O)OCC1(O)Cc3c(cc(OC(C)=O)c(OC(C)=O)c3OC(C)=O)C21 (stereo unspecified)", "normalized growth": 0.949}
{"Compound": "O=C(Cc1cccs1)NC1C(=O)N2C(C(=O)[O-])=C(C[n+]3ccccc3)CSC12 (stereo unspecified)", "normalized growth": 0.978}
{"Compound": "CCCCCCC(C)OC(=O)COc1ccc(Cl)cc1Cl (stereo unspecified)", "normalized growth": 1.01}
{"Compound": "COc1ccc2ccc(=O)oc2c1", "normalized growth": 1.01}
{"Compound": "COc1ccc(-c2cc(=O)c3c(O)cc(O[C@H]4O[C@H](CO[C@@H]5O[C@@H](C)[C@H](O)[C@@H](O)[C@H]5O)[C@@H](O)[C@H](O)[C@H]4O)cc3o2)cc1", "normalized growth": 1.01}
{"Compound": "CC1CC[C@]2(NC1)O[C@H]1CC3C4CC[C@H]5C[C@@H](O)CC[C@]5(C)C4CC[C@]3(C)[C@H]1[C@@H]2C (stereo partly specified)", "normalized growth": 0.0764}
{"Compound": "CO[C@@]1(NC(=O)C(C(=O)O)c2ccc(O)cc2)C(=O)N2C(C(=O)O)=C(CSc3nnnn3C)CO[C@@H]21 (stereo partly specified)", "normalized growth": 1}
{"Compound": "Oc1cc2c(cc1O)C1c3ccc(O)c(O)c3OCC1(O)C2 (stereo unspecified)", "normalized growth": 0.946}
{"Compound": "COc1cc(OC)c2c(=O)c(OC)c(-c3ccc(OC)c(OC)c3)oc2c1", "normalized growth": 0.968}
{"Compound": "CC1CC[C@@]2(OC1)O[C@H]1CC3C4CC[C@@H]5C[C@@H](O)CC[C@]5(C)C4CC[C@]3(C)[C@H]1[C@@H]2C (stereo partly specified)", "normalized growth": 1.01}
